Examples of substances with documented Emax (fold induction over background) follow.
# target-entity: CD137 (Homo sapiens, UniProt Q07011)
# Sequence (Q07011 24-255): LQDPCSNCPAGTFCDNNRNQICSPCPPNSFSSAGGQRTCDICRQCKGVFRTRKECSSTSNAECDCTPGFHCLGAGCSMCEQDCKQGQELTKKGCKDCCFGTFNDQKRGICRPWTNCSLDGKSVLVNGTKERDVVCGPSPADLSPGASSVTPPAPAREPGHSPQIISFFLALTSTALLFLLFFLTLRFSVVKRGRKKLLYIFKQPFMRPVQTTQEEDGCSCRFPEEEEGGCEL
# method-notes: CD137 reporter assay (Promega, Jurkat cells) in co-culture with EphA2-expressing tumor cells (A549, PC3, HT29)
# Type: cell-based
# Set-up: host or cells: Jurkat reporter cells
# run-conditions: CD137 reporter coculture assay with PC3 tumor cells
Starred links: 1 amine or outer side, 2 acyl side, 3 side chain; linkers in the order of their positions; H or OH if unused. Positions of bridges follow the written chain, without caps; N, C: chain ends. Non-standard residues stand in square brackets, D forms with d. Chains are numbered I, II in the order given. X1 = O=C(CCOCCOCCOCCN(CCOCCOCCOCCn1cc(CCC(=O)[*:2])nn1)CCOCCOCCOCCn1cc(CCC(=O)[*:3])nn1)[*:1]; X3 = O=C(CCc1cn(CCOCCOCCOCCN(CCOCCOCCOCCC(=O)[*:3])CCOCCOCCOCCn2cc(CCC(=O)[*:2])nn2)nn1)[*:1]; X2 = O=C(CCSCCC(=O)[*:1])N1CN(C(=O)CC[*:2])CN(C(=O)CC[*:3])C1; TATA = O=C(CC[*:1])N1CN(C(=O)CC[*:2])CN(C(=O)CC[*:3])C1; Dip = N[C@H](C(=O)O)C(c1ccccc1)c1ccccc1; 1Nal = N[C@@H](Cc1cccc2ccccc12)C(=O)O; Hyp = O=C(O)[C@@H]1C[C@@H](O)CN1; hArg = N=C(N)NCCCC[C@H](N)C(=O)O; tBuAla = CC(C)(C)C[C@H](N)C(=O)O; Aad = N[C@@H](CCCC(=O)O)C(=O)O; Cba = N[C@@H](CC1CCC1)C(=O)O; NMeA = CN[C@@H](C)C(=O)O; Nle = CCCC[C@H](N)C(=O)O; Mpa = O=C(O)CCS
assay-endpoint: Emax (fold induction over background)

• I: C[Hyp][Cba]VNPLCL[Dip]P[dD]WTC[dA]-NH2 / II: [Mpa][tBuAla]PE[dK]PYCFADPY[Nle]C-NH2 / III: [tBuAla]PE[dK]PYCFADPY[Nle]C-NH2 (linker I:1-I:8-I:15, II:1-II:8-II:15 via TATA; linker I:N-II:5-III:4 via X1; linker III:N-III:7-III:14 via X2) [BCY13341] = 49.15
• I: A[hArg]DC[Hyp]LVNPLC[Aad]HP[dD]W[hArg]C-NH2 / II: Ac-C[tBuAla]PE[dK]PYCFADPY[Nle]CA-NH2 / III: Ac-C[tBuAla]PE[dK]PYCFADPY[Nle]CA-NH2 (linker I:4-I:11-I:18, II:1-II:8-II:15, III:1-III:8-III:15 via TATA; linker I:N-II:5-III:5 via X1) [BCY13285] = 36.53
• I: Ac-C[tBuAla]PE[dK]PYCFADPY[Nle]CA-NH2 / II: Ac-C[tBuAla]PE[dK]PYCFADPY[Nle]CA-NH2 / III: C[Hyp]LVNPLCL[1Nal]P[dD]WTC-NH2 (linker I:1-I:8-I:15, II:1-II:8-II:15, III:1-III:8-III:15 via TATA; linker I:5-II:5-III:N via X3) [BCY13273] = 51.27
• I: A[hArg]DC[Hyp]LVNPLCLHP[dD]W[hArg]C-NH2 / II: [Mpa][tBuAla]EE[dK]PYCFADPY[Nle]C-NH2 / III: [tBuAla]EE[dK]PYCFADPY[Nle]C-NH2 (linker I:4-I:11-I:18, II:1-II:8-II:15 via TATA; linker I:N-II:5-III:4 via X1; linker III:N-III:7-III:14 via X2) [BCY13139] = 43.75
• I: [NMeA][hArg]DC[Hyp]LVNPLCLHP[dD]W[hArg]C-NH2 / II: Ac-C[tBuAla]PE[dK]PYCFADPY[Nle]CA-NH2 / III: Ac-C[tBuAla]PE[dK]PYCFADPY[Nle]CA-NH2 (linker I:4-I:11-I:18, II:1-II:8-II:15, III:1-III:8-III:15 via TATA; linker I:N-II:5-III:5 via X1) [BCY13275] = 47.50
